Molecular target: T1, DRED complex (TR2/TR4 heterodimer DNA-binding core) (Mus musculus, UniProt Q505F1;P49117 Q505F1:1-590,P49117:1-596)
T1 sequence 1: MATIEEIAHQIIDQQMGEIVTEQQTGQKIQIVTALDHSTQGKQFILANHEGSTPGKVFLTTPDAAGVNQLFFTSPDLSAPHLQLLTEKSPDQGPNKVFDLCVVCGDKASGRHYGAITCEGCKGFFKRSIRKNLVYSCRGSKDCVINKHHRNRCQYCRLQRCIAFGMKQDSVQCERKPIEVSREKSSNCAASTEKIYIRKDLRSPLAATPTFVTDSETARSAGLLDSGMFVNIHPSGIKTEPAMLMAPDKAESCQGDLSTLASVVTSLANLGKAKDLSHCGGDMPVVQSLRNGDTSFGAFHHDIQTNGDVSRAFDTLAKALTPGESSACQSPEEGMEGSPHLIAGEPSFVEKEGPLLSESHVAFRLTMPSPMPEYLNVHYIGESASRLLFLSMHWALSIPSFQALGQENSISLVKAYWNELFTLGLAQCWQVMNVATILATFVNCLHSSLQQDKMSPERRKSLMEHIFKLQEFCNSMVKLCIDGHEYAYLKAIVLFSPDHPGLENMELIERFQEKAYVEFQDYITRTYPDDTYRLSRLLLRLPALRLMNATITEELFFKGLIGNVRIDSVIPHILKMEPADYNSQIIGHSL
T1 sequence 2: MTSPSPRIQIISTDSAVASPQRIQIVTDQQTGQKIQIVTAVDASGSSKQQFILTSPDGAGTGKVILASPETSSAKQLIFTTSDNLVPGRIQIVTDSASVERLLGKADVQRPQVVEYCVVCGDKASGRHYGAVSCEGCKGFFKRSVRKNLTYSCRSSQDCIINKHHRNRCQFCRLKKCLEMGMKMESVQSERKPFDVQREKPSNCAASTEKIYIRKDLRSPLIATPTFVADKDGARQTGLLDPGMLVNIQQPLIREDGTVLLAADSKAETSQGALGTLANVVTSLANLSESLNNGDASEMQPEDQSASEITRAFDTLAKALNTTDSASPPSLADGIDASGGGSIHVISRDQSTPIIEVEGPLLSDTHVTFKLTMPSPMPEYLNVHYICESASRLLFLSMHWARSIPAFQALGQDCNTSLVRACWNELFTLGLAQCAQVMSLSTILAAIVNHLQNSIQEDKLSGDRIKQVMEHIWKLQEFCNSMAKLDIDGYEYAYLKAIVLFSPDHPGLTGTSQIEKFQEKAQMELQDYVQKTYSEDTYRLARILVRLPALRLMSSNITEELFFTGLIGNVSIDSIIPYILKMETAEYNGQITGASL
Assay: competition; EMSA competition vs 1.1 nM 32P epsilon distal DR probe; unlabeled competitor
Conditions: protein: extract; tags: native, MEL mouse erythroleukemia cell nuclear extract; label: 32P (probe); blunt ended
measurementName: Ki (nM)
Write it as a number; the unit nM goes unstated.

## Task Param item = epsilon distal DR (dsDNA) DNA 1: CCCTGAGGACACAGGTCAGCCTTG DNA 2: CAAGGCTGACCTGTGTCCTCAGGG ; retrieve measured Ki.
## Result 0.97
